Tested on: HEK-293T
Test: Multiplex assay against HEK293T
Type: toxicity, cell-based
Details: human, 12 h, 1 µM, compound concentration 1 uM, number of replicates 2
Rule: t for Population Tubulin-Different-Phenotype (%) not less than 50%, f for anything less.

Input line: Determine whether measured Population Tubulin-Different-Phenotype (%) meets or exceeds 50% for CN1CCN(c2ccc(-n3cc(-c4ccncc4OCC4CCNCC4)cn3)cc2)CC1
Output line: f

Input line: Please give the result for CN(C)CC#Cc1ccc2[nH]c3c(c2c1)-c1nc(N)ncc1CCC3 too.
Output line: t

Input line: Please give the result for COc1cccc(Cn2cc(C(=O)Nc3ccc(C)c(S(=O)(=O)N4CCOCC4)c3)c(-c3ccc(C)cc3)n2)c1 too.
Output line: t

Input line: Please give the result for Cc1ccc2c(c1CCC(=O)O)CC[C@@H](NS(=O)(=O)c1ccc(Cl)cc1)C2 too.
Output line: f
